Procedure summary: chemical genetic growth profiling, strain panel (AID 1159580);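 further: tested at 20 µM; growth read once vehicle control cultures reached saturation at 30 °C; 1 = growth at the plate median or of vehicle wells; lower values mean less growth of the strain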
Condition set: S. cerevisiae deletion strains, growth OD, locus YHR200W, strain rpn10
The whole screen tested about 5,500 compounds, of which about 2,000 (36%) were called active. Not shown: some 18% with an inconclusive outcome. No stated cut-off is given here; in the data, active means normalized growth mostly below about 0.91 (no sharp cut-off); inconclusive means no clear call, values can overlap the other calls; inactive means mostly above about 0.92. This is one part of the list.
Please state which outcome applies, choosing from active, inactive

Example entries begin here.
Compound: COC(=O)[C@H]1[C@H]2C[C@@H]3c4[nH]c5cc(OC)ccc5c4CCN3C[C@H]2C[C@@H](OC(=O)c2cc(OC)c(OC)c(OC)c2)[C@@H]1OC
Label class: inactive
--
Compound: COc1cc(/C=C/C(=O)O)cc(OC)c1OC
Label class: inactive
--
Compound: O=C(O)c1cc(=O)c2c(OCC(O)COc3cccc4oc(C(=O)O)cc(=O)c34)cccc2o1
Label class: inactive
--
Compound: O=c1cccc2n1C[C@H]1CNCC2C1
Label class: inactive
--
Compound: O=C(O)CCC(=O)c1ccc(-c2ccccc2)cc1
Label class: inactive

-- ask Could you kindly confirm the outcome this assay logged for CC(C)C1=CC2=CCC3[C@](C)(CCC[C@]3(C)C(=O)O)C2CC1 (some centres undefined) ?
-- reply inactive

-- ask Dear all, I need the recorded test outcome for Nc1c(Br)cc(Br)cc1CNC1CCC(O)CC1 (centres undefined) , thank you.
-- reply inactive

-- ask Kindly provide the recorded test outcome for the following compound: NC(=O)c1cnccn1
-- reply inactive

-- ask Recorded call for CN(C)CCCO[C@H]1[C@@H](C(O)CO)OC2OC(C)(C)O[C@@H]21 (some centres undefined) ?
-- reply inactive

---

Hi there, I'd appreciate the recorded normalized growth for every entry that follows.
Procedure summary: chemical genetic growth profiling, strain panel (AID 1159580);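 further: tested at 20 µM; growth read once vehicle control cultures reached saturation at 30 °C; 1 = growth at the plate median or of vehicle wells; lower values mean less growth of the strain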
Condition set: S. cerevisiae deletion strains, growth OD, locus YNL271C, strain bni1, active compounds read low
Screen size: about 5,500 compounds; about 2,000 (36%) were called active. Inconclusive results (about 18%) are left out. Some of the results follow.

A selection of reference data follows.
Compound: CCOc1ccc2c(c1)C(C)=CC(C)(C)N2
normalized growth: 0.968 (inactive)
--
Compound: CC1(C)CC2C1CCC1(C)OC1CCC2(C)O (stereo not drawn)
normalized growth: 1.03 (inactive)
--
Compound: CC1=C(/C=C/C(C)=C/C=C/C(C)=C/C(=O)O)C(C)(C)CCC1
normalized growth: 1.03 (inactive)
--
Compound: CC1=C(/C=C/C(C)=C/C=C/C(C)=C\C(=O)O)C(C)(C)CCC1
normalized growth: 0.994 (inactive)
--
Compound: COP(=S)(OC)Oc1ccc(SC)c(C)c1
normalized growth: 0.989 (inactive)
--
Compound: NCCCCN=C(N)N
normalized growth: 0.976 (inactive)
--
Compound: S=c1[nH]c2ccccc2s1
normalized growth: 0.99 (inactive)
--
Compound: CCOP(=S)(OCC)Oc1ccc2c(C)c(Cl)c(=O)oc2c1
normalized growth: 0.99 (inactive)

Each compound below has a recorded value; state its normalized growth.
1. O=C1N=C(O)CN1/N=C\c1ccc(-c2ccc([N+](=O)[O-])cc2)o1
2. Nc1ccc(S(=O)(=O)Nc2nccs2)cc1
3. Cc1cccc(CN2CCN(C(c3ccccc3)c3ccc(Cl)cc3)CC2)c1 (stereo not drawn)
4. CO[C@@H]1[C@@H](O[C@@H]2O[C@H](C)[C@@H](O[C@H]3C[C@@](C)(O)[C@H](O)[C@H](C)O3)[C@H](N(C)C)[C@H]2O)[C@@H](CC=O)C[C@@H](C)[C@@H](O[C@H]2CC[C@H](N(C)C)[C@@H](C)O2)/C=C/C=C/C[C@H](C)OC(=O)C[C@H]1O
5. CCOC(N)=O
6. CC[C@@]1(C2O[C@@H](C3O[C@@](O)(CC)[C@H](C)C[C@@H]3C)C[C@@H]2C)CC[C@H]([C@]2(C)CCC3(C[C@H](O)[C@@H](C)[C@@H]([C@H](C)[C@@H](OC)[C@H](C)C(=O)O)O3)O2)O1 (stereo partly drawn)
7. Oc1cc(O)cc(/C=C/c2ccccc2)c1
8. CC1(C)CC2C1CCC1(C)OC2(C)CCC1O (stereo not drawn)

-- reply
1. 1.02 (inactive)
2. 0.992 (inactive)
3. 0.988 (inactive)
4. 1 (inactive)
5. 1.02 (inactive)
6. 1.01 (inactive)
7. 0.984 (inactive)
8. 1.01 (inactive)

Quick request: normalized growth for each listed item, please.
1. CCC(CCC(C)C1CCC2C3CC=C4C[C@@H](OC(C)=O)CC[C@]4(C)C3CC[C@]12C)C(C)C (stereo partly drawn)
2. COc1ccccc1-c1cc(=O)c2c(OC)cccc2o1
3. Nc1c(Br)cc(Br)cc1CNC1CCC(O)CC1 (stereo not drawn)
4. COc1ccc2c(c1O)-c1c(OC)c(OC)cc3c1[C@H](C2)N(C)CC3

-- reply
1. 0.957 (inactive)
2. 0.969 (inactive)
3. 1 (inactive)
4. 1.03 (inactive)

# return normalized growth for each item in the list
1. CC(=O)N[C@@H]1[C@@H](C(O)[C@H](O)CO)O[C@](O)(C(=O)O)C[C@@H]1O (stereo partly drawn)
2. COc1ccccc1-c1cc(=O)c2cccc(OC)c2o1
3. OCC(S)CS (stereo not drawn)
4. C[C@](N)(Cc1ccc(O)c(O)c1)C(=O)O
5. Cc1ccc(C(C)C)cc2c(C)ccc1-2
6. O=C(O)c1cc(=O)c2c(OCC(O)COc3cccc4oc(C(=O)O)cc(=O)c34)cccc2o1

-- reply
["1.01 (inactive)", "0.983 (inactive)", "0.988 (inactive)", "0.989 (inactive)", "1.03 (inactive)", "1.03 (inactive)"]

Below are 5 compounds. Give each one its normalized growth.
1. CN(Cc1cc(Br)cc(Br)c1N)C1CCCCC1
2. C[C@@H]1CC2C3CCC4=CC(=O)C=C[C@]4(C)[C@@]3(F)[C@@H](O)C[C@]2(C)[C@@]1(O)C(=O)COP(=O)(O)O (stereo partly drawn)
3. O=C1O[C@@H](CO)[C@H](O)[C@@H](O)[C@@H]1O
4. CC(=O)OCC(=O)[C@@]12OC(C)(C)O[C@@H]1CC1C3C[C@H](F)C4=CC(=O)C=C[C@]4(C)[C@@]3(F)[C@@H](O)C[C@@]12C (stereo partly drawn)
5. COc1c(C2COc3cc4c(cc3C2=O)CC(O)C(C)(C)O4)ccc2c1CCC(C)(C)O2 (stereo not drawn)

-- reply
1.02 (inactive)
1.01 (inactive)
0.993 (inactive)
1.04 (inactive)
1.01 (inactive)
